assay_metric: MDR1-MDCK efflux ratio

Cn1ccc(CN2C(=O)c3ccccc3C2=O)cc1=O : 1.9
Cc1nc(C)c2c(C)c(C(=O)N(C)CCN3CCCC3)sc2n1 : 12.6
CCCn1cnnc1CN(C)Cc1ccc(C(F)(F)F)nc1 : 23.6
O=C(Nc1cccc(-c2cnco2)c1)C1(c2cccc(F)c2)CCOCC1 : 2.37
CC(=O)Nc1cccc(CN2CCCN(C(C)=O)c3ccccc32)c1 : 15.9
COc1cc(OC)c(OC)cc1CNc1ccc(N2CCOCC2)c(C(=O)O)c1 : 28
CCCc1noc(CN2CCN(c3ccccc3OC)CC2)n1 : 0.743
Cc1cccc(OCCCNc2cc(Cn3c(C)nc4ccccc43)nc(N)n2)c1 : 22.7

1 = CN(C)CCN(Cc1ccccc1)Cc1ccccc1O
2 = Cn1ncc2c(Oc3cccc(C(C)(C)C)c3)ncnc21
3 = Cc1cc(C(=O)Nc2c(C)nn(C(C)C)c2C)c2ccc(F)cc2n1
Q: Ordering: ascending MDR1-MDCK efflux ratio. // rank by listing labels in the order requested
Ans: 2, 1, 3

A = CCc1ccc(CNc2nncs2)o1
B = Cc1cc(NC(=O)CCc2cnn(C)c2)c2ccccc2n1
Q: # query: argmin of MDR1-MDCK efflux ratio over A and B Reply briefly: the label of your chosen item.
Ans: A
(A: 0.666, B: 7.68)

###

assay_metric: intrinsic clearance, rat liver microsomes (mL/min/kg)

Example entries and their recorded answers appear below.
CC1CCN(C(=O)CCn2ccc3ccncc32)CC1 : 1960
O=C(/C=C\n1cnc(-c2cc(C(F)(F)F)cc(C(F)(F)F)c2)n1)NNc1ccccn1 : 52.4
CCOC(=O)c1c(C)[nH]c(CN(Cc2ccccc2)C(=O)c2ccccc2Cl)c1C : 1490
Cc1cc(C)c(C#N)c(N2CCN(CC(=O)Nc3ccccc3Cl)CC2)n1 : 804
CC(C)Cc1ccc(-c2nc(-c3ccc(CN4CC(C(=O)O)C4)cc3)no2)cc1 : 17
Cc1cccc(NC(=O)c2ccc3ccccc3c2)n1 : 209
O=C(Cc1ccccc1F)N1CCN(c2nccn3nc4c(c23)CCCC4)CC1 : 784
c1ccc(COc2ccc(CNCC3CCNCC3)cc2)cc1 : 21.1

P = CC(C)(C)N1CCCN(C(=O)CNc2ccc(C#N)cc2)CC1
Q = O=C(Nc1nc2ccccc2[nH]1)C1CCCCC1
Q: Of P and Q , which one carries the higher reported intrinsic clearance, rat liver microsomes? The response must carry the label of the picked entry.
Ans: Q
(Q: 189 mL/min/kg, P: 65.3 mL/min/kg)

###

assay_metric: intrinsic clearance, human liver microsomes (mL/min/kg)

O=C(Nc1cccnc1)c1ccccc1Cc1ccccc1 : 33.9
Fc1ccc(CNc2nnc(-c3ccc4c(c3)OCO4)o2)cc1 : 95.2
Cn1ncc2c(Oc3cccc(Oc4ccccn4)c3)ncnc21 : 10.1
O=C(NO)c1cnc(NC2(c3cccc(F)c3)CCCCC2)nc1 : 14.4
CS(=O)(=O)NCCN1CCc2c(Cl)cc(Cl)cc2C1 : 14.3

I = CC(=O)NC[C@H]1C[C@]2(C)[C@@H](CCCC[C@]2(C)O)N1CC1(O)CCCCCC1
II = COc1ccc(-c2cccc(C3CCCN(CC(=O)Nc4ccccn4)C3)n2)cc1 (configuration not stated)
Q: Kindly identify the item with the lower intrinsic clearance, human liver microsomes figure among these two: I and II Give the label under which the chosen entry appears.
Ans: I

###

assay_metric: MDR1-MDCK efflux ratio

NC[C@H]1CC[C@@H](C(=O)Nc2ccc3[nH]ncc3c2)O1 : 1.14
Cc1ccnc(N2CCC(OCC3CCCC3)CC2)n1 : 0.515
COc1ccc(-c2csc3ncnc(Oc4ccc(C)nc4)c23)cc1 : 0.595
O=C1CCCN1c1ccc(NCc2ccccn2)nc1 : 1.31
CCc1nc(CC)n(Cc2nc(C)cs2)n1 : 0.797
Cn1nc(C2CC2)c2[nH]c(-c3cccc(CN4CCOCC4)c3)nc21 : 52
Brc1cc2c(cc1Cn1cncn1)OCCCO2 : 0.566
O=C1CCC(=O)N1CCN1CCCCc2ccccc21 : 0.651
Cc1cc(NC(=O)CCc2c(C)nn(C)c2C)no1 : 3.86
Cc1nc(Cl)cc(Nc2cnn(C(C)(C)C)c2)n1 : 0.684

a = Cc1cccc(N2CCN(C(=O)c3cncnc3C(C)C)CC2)c1
b = Cc1cc(N2CCN(CC3CCN(C(=O)CC(C)C)CC3)CC2)n[nH]1
Q: Lower value for measured MDR1-MDCK efflux ratio? Options: a , b // respond with label for picked entry
Ans: a

A = C[C@]12C=CC(=O)C=C1CC[C@@H]1[C@@H]2[C@@H](O)C[C@@]2(C)[C@H]1CC[C@]2(O)C(=O)CO
B = CN(C)S(=O)(=O)CCCN1CCc2ccccc2CC1
C = Nc1nc(N)c2nc(-c3cccc(O)c3)c(-c3cccc(O)c3)nc2n1
D = CCCn1cc(C(=O)N2CCC(c3n[nH]cc3C(=O)N3CCOCC3)CC2)cn1
Q: List by increasing MDR1-MDCK efflux ratio. Would you mind listing the labels in the order requested?
Ans: B, C, A, D

a = O=C(CC(=O)N1CCCC1)N1CCCC1
b = COCc1nc(-c2cc(F)ccc2F)c(C)s1
Q: Which of the two gives a bigger number for MDR1-MDCK efflux ratio: a or b ? Field: selected label. Fill in the label of the entry you choose.
Ans: a

P = NC(=O)Cn1ccc(-c2ccccc2)n1
Q = CCn1c(C)nc2cc(NC(=O)c3ccc(=O)n(CC(=O)N4CCCCC4)c3)ccc21
R = O=C(Nc1nc2cc(C(F)(F)F)cc(NC3CC3)n2n1)c1cccnc1
S = COc1ccc(C)cc1-n1ccc(C(=O)Nc2c3c(nn2C)CCC3)n1
Q: # rank by MDR1-MDCK efflux ratio, ascending (min first) Provide your answer as the labels ordered per the instruction.
Ans: P, S, R, Q
(P: 0.792, S: 1.45, R: 2.35, Q: 4.08)

A = OC1(Cn2nnc(-c3cccnc3)n2)CCCCC1
B = COCC(C)(C)C(=O)N1CCCC2(CCNCC2)CC1
Q: Given A and B , report the one with the higher recorded MDR1-MDCK efflux ratio. Give the label of your selection.
Ans: B
(B: 4.31, A: 0.66)

A = O=C(O)c1ccc(=O)n(CCc2c[nH]c3ccccc23)c1
B = C[C@]1(O)CN(C(=O)Cn2cnc3ccccc3c2=O)CC[C@@H]1Oc1ccccc1
C = COc1cc(CNc2nnn[nH]2)cc(Br)c1OCc1ccc(Cl)cc1
D = C=CC(=O)Nc1cccc(Oc2nc(Nc3ccc(N4CCN(C)CC4)cc3)nc3ccsc23)c1
Q: Rank the items in ascending order with respect to MDR1-MDCK efflux ratio. Order the labels as requested and give them as your answer.
Ans: A, C, B, D

1 = CCn1nc(CNC(=O)C2CCOCC2)c2ccccc21
2 = COc1ccc(CN2CCC(c3nc(C(C)C)no3)CC2)c(F)c1
3 = Cn1ccnc1CN1CCN(Cc2ccc(F)cc2C#N)CC1
4 = COc1ccc(-c2nc(C3CCN(C(=O)c4sc(C)nc4C)CC3)[nH]c2C(N)=O)cc1
5 = CCCOc1c2c(nc3cc(C4CCOCC4)nn13)CCC2
Q: Number of compounds to sort: 5. Sort criterion: MDR1-MDCK efflux ratio, ascending. Answer with the labels in sequence, matching the requested order.
Ans: 2, 1, 3, 5, 4
(2: 0.777, 1: 2.83, 3: 6.3, 5: 22.3, 4: 42.1)

I = CN1CCC(O)(CNS(=O)(=O)CC2CCCCC2)CC1
II = CN(C)C1=N[C@@H]2[C@@H](O)[C@H](O)[C@@H](CO)O[C@@H]2S1
III = Cc1nc(C2(NCc3cccc(C#N)c3)CCCC2)no1
IV = Cc1ccccc1C(=O)N1CCC[C@@H]1Cn1nnn(-c2cccs2)c1=O
Q: Hey, can you sort those compounds up there by MDR1-MDCK efflux ratio, smallest first? API: response body holds the labels in the requested order.
Ans: II, III, IV, I
(II: 0.274, III: 0.681, IV: 1.11, I: 2.92)

###

- experimental_setup: pH 6.8
assay_metric: aqueous solubility (µg/mL)

Cc1ccc(F)cc1C(=O)N1CCc2c(nc(-c3ccccn3)nc2N(C)C)C1 : 25.7

P = Cc1csc(NC(=O)c2cccc(C)c2C)n1
Q = O=C1N=C2C=CC=CN2C12Cc1ccccc1C2
Q: Given the two records P and Q , choose the one whose aqueous solubility value is lower. Provide the label of your selected option as the answer.
Ans: P
(P: 11.3 µg/mL, Q: 37.4 µg/mL)

###

assay_metric: MDR1-MDCK efflux ratio

Completed entries (count: 5):
O=C(Nc1ccc2c3c(cccc13)CC2)c1ccnc(-n2cncn2)c1 : 0.25
CC(C)N(CCCNC(=O)Nc1ccc(C(C)(C)C)cc1)C[C@@H]1O[C@@H](n2ccc3c(N)ncnc32)[C@H](O)[C@H]1O : 6.05
Cc1ccccc1-n1nc(C(C)(C)C)cc1N : 0.607
CN(Cc1ccc(Cl)cc1)C(=O)c1ccc(-n2ccnc2)nc1 : 1.08
Cc1nccc(-c2cccc(-n3ccnc3C(C)C)c2)n1 : 1.45

a = COCCNC(=O)CN1CCN(c2nccn2-c2cccc(Cl)c2)CC1
b = Cc1c(C(=O)N2CCC(C(=O)Nc3ccc4c(c3)OCO4)CC2)oc2c(F)cccc12
Q: Which shows the larger MDR1-MDCK efflux ratio value: a or b ? Indicate your choice by writing its label.
Ans: a

1 = Cc1ccccc1OC1CCN(C(=O)Nc2ccc3c(c2)ncn3C)CC1
2 = Cc1cc(C)n2nc(C)c(C(=O)NCC3CC3)c2n1
3 = O=C(O)c1cc(/C=C/c2csnn2)nc2ccccc12
4 = CCOc1ccc(C(=O)Nc2cc(C(=O)OC)ccc2N2CCN(C(C)=O)CC2)cc1
5 = Cn1cc(-c2ccc(-c3cncc(Cl)c3N3CCC4(CCNC4=O)CC3)cc2)cn1
Q: List the 5 entries from lowest MDR1-MDCK efflux ratio to highest MDR1-MDCK efflux ratio value. Answer by listing the labels in the requested order.
Ans: 2, 3, 4, 1, 5
(2: 0.725, 3: 2.08, 4: 5.81, 1: 8.7, 5: 61.1)
